FYI, the data here is from patent US20100093028A1.

Below is a list of entries, each paired with its recorded pIC50 value.
TEST SYSTEM: T1, Tumor necrosis factor α (UniProt P01375 77-233)
T1 construct: also called TNFα; TNF
T1 sequence (P01375 77-233 limits assumed): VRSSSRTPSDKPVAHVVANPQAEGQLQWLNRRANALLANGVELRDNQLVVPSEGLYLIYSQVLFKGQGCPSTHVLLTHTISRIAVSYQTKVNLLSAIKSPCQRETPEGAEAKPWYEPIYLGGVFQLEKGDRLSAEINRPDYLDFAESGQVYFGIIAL
ASSAY OVERVIEW: BioVeris ECL competition with a labeled competitor; legend: + = IC50 about 50-250 µM
pIC50: −log10 of the molar value.

{"columns": ["BINDER", "pIC50"],
 "data": [
  ["BBIt-TNFα-T3-A13I-S25R-M27A-L29P-S31A-F50K-V52T (designed binder, also called BBIt-TNF-T3) DPDDESSKPCCDQCICTKSNPPQCRCRDARPNACHSACKSCACDMIMVSICKCTDITDFCYEPCKPSE", "3.60 to 4.30"],
  ["BBIt-TNFα-T2-A13I-S25R-M27A-L29P-S31A-F50K-V52T (designed binder, also called BBIt-TNF-T2) DPDDESSKPCCDQCICTKSNPPQCRCRDARPNACHSACKSCACAPEPILACKCTDITDFCYEPCKPSE", "3.60 to 4.30"]
]}
